assay_target: recombinant human FLAP protein (Homo sapiens)
Construct: made in house; host or cells: Sf9 insect cells (100,000×g membrane pellet used)
Sequence (P20292 whole entry): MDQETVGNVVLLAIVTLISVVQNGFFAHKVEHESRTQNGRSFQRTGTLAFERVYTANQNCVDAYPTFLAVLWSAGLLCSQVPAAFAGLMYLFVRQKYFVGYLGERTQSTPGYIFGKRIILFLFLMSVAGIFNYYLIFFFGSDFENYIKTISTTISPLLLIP
test_details: FLAP binding assay (SPA, displacement of [125I]L-691,831)
condition_set: membranes of sf9 cells expressing recombinant human FLAP; [125I]L-691,831 probe; read-out: FLAP binding IC50
observable: IC50 (nM)

Below are worked cases with known answers.
INSERT INTO results (compound, assay_target, observable, value_measured) VALUES
  ('CN(C)C(=O)Cn1cc(-c2nc(C(C)(c3ccc(-c4cnc5[nH]ccc5c4)cc3)C3CC3)no2)cn1 (stereo not shown) [Example 242]', 'recombinant human FLAP protein (Homo sapiens)', 'IC50', 5.7),
  ('CC(C)C(C)(c1ccc(-c2cnc(N)nc2)cc1)c1noc(C(=O)N2CCN(C)CC2)n1 (stereo not shown) [Example 91]', 'recombinant human FLAP protein (Homo sapiens)', 'IC50', 54),
  ('CC(C)C(C)(c1ccc(-c2cnc(N)nc2)cc1)c1noc(-c2cnn(CC(C)(C)O)c2)n1 (stereo not shown) [Example 159]', 'recombinant human FLAP protein (Homo sapiens)', 'IC50', 4.6),
  ('Cc1n[nH]c(C)c1-c1nc(C(C)(c2ccc(-c3cnc(N)nc3)cc2)C(C)C)no1 (stereo not shown) [Example 133]', 'recombinant human FLAP protein (Homo sapiens)', 'IC50', 1.6),
  ('CC(C)[C@@](C)(c1ccc(-c2cnc(N)nc2)cc1)c1noc(-c2ccn[nH]2)n1 [Example 24]', 'recombinant human FLAP protein (Homo sapiens)', 'IC50', 19),
  ('COCCn1cc(-c2nc([C@@](C)(c3ccc(-c4ccc(N)nc4)cc3)C3CC3)no2)cn1 [Example 183]', 'recombinant human FLAP protein (Homo sapiens)', 'IC50', 5.5),
  ('CC(C)(CO)Nc1cnc(-c2nc(C(C)(c3ccc(-c4cnc(N)nc4)cc3)C3CC3)no2)cn1 (stereo not shown) [Example 45]', 'recombinant human FLAP protein (Homo sapiens)', 'IC50', 3.1),
  ('C[C@@](c1ccc(-c2ccc(N)nc2)cc1)(c1noc(-c2cnn(C3COC3)c2)n1)C1CC1 [Example 263]', 'recombinant human FLAP protein (Homo sapiens)', 'IC50', 3.5),
  ('CN(C)C(=O)Cn1cc(-c2nc([C@@](C)(c3ccc(-c4cnc(N)c(C(F)(F)F)c4)cc3)C3CC3)no2)cn1 [Example 281]', 'recombinant human FLAP protein (Homo sapiens)', 'IC50', 5),
  ('CN(C)C(=O)Cn1cc(-c2nc([C@@](C)(c3ccc(-c4cnc(N)nc4)cc3)C3CCC3)no2)cn1 [Example 104]', 'recombinant human FLAP protein (Homo sapiens)', 'IC50', 6.1);

P. COCCn1cc(-c2nc([C@@](C)(c3ccc(-c4cnc(N)nc4)cc3)C3CCC3)no2)cn1 [Example 100]
Q. CC(c1ccc(-c2cnc(N)nc2)cc1)(c1noc(N2CC(O)C2)n1)C1CC1 (stereo not shown) [Example 274]
Query block: Of P and Q , whose reported IC50 is numerically smaller? Answer with the label corresponding to your selection.
Result block: P

a. CC(C)C(C)(c1ccc(-c2cnc(N)nc2)cc1)c1noc(N2CCS(=O)(=O)CC2)n1 (stereo not shown) [Example 168]
b. CC(C)C(C)(c1ccc(-c2cnc(N)nc2)cc1)c1noc(N2CCC(N)CC2)n1 (stereo not shown) [Example 222]
Query block: Decide: a or b , by lowest recorded IC50. # respond with the chosen item's label
Result block: a
(a: 21 nM, b: 130 nM)

a. CC(C)C(C)(c1ccc(-c2cnc(N)nc2)cc1)c1noc(NCC(C)(C)O)n1 (stereo not shown) [Example 82]
b. CN(C)C(=O)Cn1cc(-c2nc(C(C)(c3ccc(-c4cnc5[nH]ccc5n4)cc3)C3CC3)no2)cn1 (stereo not shown) [Example 247]
Query block: // which entry has the larger IC50 value, a or b ? Lab log: write the label of the selected item as the result.
Result block: a

A. CN(C)C(=O)Cn1cc(-c2nc(C(C)(c3ccc(-c4cnc(N)c(C(F)(F)F)c4)cc3)C3CC3)no2)cn1 (stereo not shown) [Example 246]
B. C[C@@](c1ccc(-c2cnc(N)nc2)cc1)(c1noc(-c2cnn(C3CC3)c2)n1)C1CC1 [Example 271]
Query block: Parameter metric = IC50. Return the lower-valued option from A and B . Answer with the label corresponding to your selection.
Result block: B
(B: 4.9 nM, A: 19 nM)

Cited source: patent US8658661B2
